Test system: Plutella xylostella (Diamond back moth)
Assay remarks: Plutella xylostella (Diamond back moth) larval mortality, artificial diet in 24-well MTP
Format: in vivo
Cond: 144 h, application rate 200 ppm (concentration in well 18 ppm), L2 larvae, larval mortality after 6 days
Attribute measured: pest or weed control at 200 ppm

Reported pest or weed control at 200 ppm for CCN(C(=O)c1ccc(F)cc1)c1cccc(C(=O)Nc2c(Br)cc(C(F)(C(F)(F)F)C(F)(F)F)cc2OC(F)F)c1OC [Compound 139] was ≥ 80%

The recorded pest or weed control at 200 ppm for CCN(C(=O)c1ccncc1)c1cccc(C(=O)Nc2c(Br)cc(C(F)(C(F)(F)F)C(F)(F)F)cc2OC(F)F)c1F [Compound 2] is ≥ 80%

Let us examine a further case.
Short answer for COc1c(NC(=O)c2ccc([N+](=O)[O-])cc2Cl)cccc1C(=O)Nc1c(Cl)cc(C(F)(C(F)(F)F)C(F)(F)F)cc1OC(F)F [Compound 86] : pest or weed control at 200 ppm was ≥ 80%
